# System: Sprague-Dawley rats
# Procedure Summary: Pharmacological effect and adverse reactions under the equivalent dose (2ED50), Group C compounds
# Format: in vivo
# Measurement Setup: equivalent dose (2ED50), number of rats of n = 8
Recorded Adverse reaction: the four limbs rigidity for the following molecules
Experimental Readout: Adverse reaction: the four limbs rigidity

1) CCSCC(=O)c1ccnn1[C@H](C)c1ccccc1	0
2) COCC(=O)c1cncn1[C@H](C)c1ccccc1	0
3) C[C@H](c1ccccc1)n1cnc(F)c1C(=O)COCCC1CCC1	0
4) C[C@H](c1ccccc1)n1cncc1C(=O)COC1CCC1	0
5) C/C=C\C(=O)c1cncn1[C@H](C)c1ccccc1	0
6) C#CCOCC(=O)c1cc(F)nn1[C@H](C)c1ccccc1	0
7) C[C@H](c1ccccc1)n1cnc(F)c1C(=O)COCC1CCC1	6
8) C[C@H](c1ccccc1)n1cncc1C(=O)COCCC1CCC1	0
9) CC#CCOCC(=O)c1c(F)ncn1[C@H](C)c1ccccc1	0
10) CCC(CC)OCC(=O)c1c(F)ncn1[C@H](C)c1ccccc1	1

----------
# Tested on: Sprague-Dawley rats
# Procedure Summary: Pharmacological effect and adverse reactions under the equivalent dose (2ED50), Group D compounds
# Assay type: in vivo
# Measurement Setup: equivalent dose (2 × ED50), number of rats of n = 8
# Text: Evaluation index: onset time: from the completion of drug injection to the disappearance of forepaw righting reflex in rats; Duration of anesthesia: the time from the disappearance of rat forepaw righting reflex to the recovery of rat forepaw righting reflex; Recovery time of anesthesia: the time from the […] to complete recovery;
Recorded Adverse reaction: Tremor for the following compounds
Experimental Readout: Adverse reaction: Tremor

1. C#CCOCC(OC)(OC)C(=O)c1cncn1[C@H](C)c1ccccc1	1
2. COC(OC)(OC)C(=O)c1c(F)ncn1[C@H](C)c1ccccc1	0
3. CCOC(OCC)C(=O)c1c(F)ncn1[C@H](C)c1ccccc1	0
4. CCOC(OC)(OC)C(=O)c1cncn1[C@H](C)c1ccccc1	0
5. CCOC(OC)(OC)C(=O)c1ccnn1[C@H](C)c1ccccc1	1
6. COC(OC)C(=O)c1cc(F)nn1[C@H](C)c1ccccc1	2
7. COC(OC)(OC)C(=O)c1cnnn1[C@H](C)c1ccccc1	1
8. COC(OC)(OC)C(=O)c1ccnn1[C@H](C)c1ccccc1 [Compound D1]	0
9. COC(OC)(OC(C)C)C(=O)c1ccnn1[C@H](C)c1ccccc1	0

----------
# System: Sprague-Dawley rats
# Assay type: in vivo
# Measurement Setup: tail vein
Recorded Minimal lethal dose for the following compounds
Experimental Readout: Minimal lethal dose

1) CCC(CC)OCC(=O)c1c(F)ncn1[C@H](C)c1ccccc1	>11.5 mg/kg
2) CCOCC(=O)c1ccnn1[C@H](C)c1ccccc1	>12.4 mg/kg
3) C#CCOCC(=O)c1cncn1[C@H](C)c1ccccc1	>10.3 mg/kg
4) COC(=O)C1(OC(=O)c2cncn2[C@H](C)c2ccccc2)CC1 [CPMM, cyclopropyl methoxycarbonyl metamidate, reference compound]	20.6 mg/kg
5) C#CCOCC(=O)c1cc(F)nn1[C@H](C)c1ccccc1	>16.8 mg/kg
6) C[C@H](c1ccccc1)n1cncc1C(=O)COCC1CC1	>11.8 mg/kg
7) CC#CCOCC(=O)c1c(F)ncn1[C@H](C)c1ccccc1	>4.2 mg/kg
8) COCC(=O)c1cncn1[C@H](C)c1ccccc1	>14.2 mg/kg
9) C[C@H](c1ccccc1)n1cncc1C(=O)COC1CCC1	>11.8 mg/kg
10) CC#CCOCC(=O)c1cc(F)nn1[C@H](C)c1ccccc1	>14.5 mg/kg

----------
Recorded Adverse reaction: Tongue stretching for the following compounds
# Test system: Sprague-Dawley rats
# Procedure Summary: Pharmacological effect and adverse reactions under the equivalent dose (2ED50), Group D compounds
# Type: in vivo
# Measurement Setup: equivalent dose (2 × ED50), number of rats of n = 8
Experimental Readout: Adverse reaction: Tongue stretching

1. C[C@H](c1ccccc1)n1cncc1C(=O)C(=O)OCC(C)(C)C [Compound D86]	0
2. COC(OC)(OC)C(=O)c1cnnn1[C@H](C)c1ccccc1 [Compound D42]	1
3. C=CCOC(OC)(OC)C(=O)c1ccnn1[C@H](C)c1ccccc1 [Compound D7]	1
4. COC(OC)(OCC(C)(C)C)C(=O)c1ccnn1[C@H](C)c1ccccc1 [Compound D6]	0
5. CCOC(=O)C(=O)c1cncn1[C@H](C)c1ccccc1 [Compound D81]	0
6. COC(OC)C(=O)c1cncn1[C@H](C)c1ccccc1 [Compound D87]	0
7. CC(C)CCOC(=O)C(=O)c1cncn1[C@H](C)c1ccccc1 [Compound D82]	1
8. COC(OC)(OC(C)C)C(=O)c1ccnn1[C@H](C)c1ccccc1 [Compound D4]	0

----------
# System: Sprague-Dawley rats
# Assay type: in vivo
# Measurement Setup: tail vein
Experimental Readout: Minimal lethal dose

1. CC#CCOCC(=O)c1cncn1[C@H](C)c1ccccc1	>13.6 mg/kg
2. CCOCC(=O)c1cncn1[C@H](C)c1ccccc1	>12.8 mg/kg
3. C[C@H](c1ccccc1)n1cnc(F)c1C(=O)COCCC1CCC1	>6.0 mg/kg
4. CCSCC(=O)c1ccnn1[C@H](C)c1ccccc1	>10.2 mg/kg
5. C[C@H](c1ccccc1)n1cnc(F)c1C(=O)COCC1CCC1	>6.4 mg/kg
6. CC(=O)COCC(=O)c1cc(F)nn1[C@H](C)c1ccccc1	>17.0 mg/kg
7. C[C@H](c1ccccc1)n1cnc(F)c1C(=O)COCC1CC1	>15.6 mg/kg
8. C/C=C\C(=O)c1cncn1[C@H](C)c1ccccc1	>13.61 mg/kg

----------
# Tested on: H295R cell line
# Procedure Summary: Adrenocortical function in vitro test: secretion of cortisol and corticosterone, Group A compounds
# Type: cell-based
# Measurement Setup: Homo sapiens; H295 cells, 0.1-10000 nM, HPLC-MS/MS; read-out: EC50 (Corticosterone)
pEC50: −log10 of the molar value.
Experimental Readout: pEC50

1. C[C@H](c1ccccc1)n1nccc1C(=O)OC1CCC1	< 6.00
2. C=CC1(OC(=O)c2c(F)cnn2[C@H](C)c2ccccc2)COC1	< 6.00
3. C[C@H](c1ccccc1)n1nccc1C(=O)OC1CSC1	< 6.00
4. CCOC(=O)c1cc(F)nn1[C@H](C)c1ccccc1	< 7.00
5. C[C@H](c1ccccc1)n1nc(F)cc1C(=O)OC(C)(C)C	< 7.00
6. C=C=CC1(OC(=O)c2ccnn2[C@H](C)c2ccccc2)COC1	< 6.00
7. CC(=O)C1(OC(=O)c2ccnn2[C@H](C)c2ccccc2)COC1	< 6.00
8. C#CC1(OC(=O)c2cc(F)nn2[C@H](C)c2ccccc2)COC1	< 7.00
9. CC#CC(C)(C)OC(=O)c1c(F)cnn1[C@H](C)c1ccccc1	< 6.00

----------
# Test system: Sprague-Dawley rats
# Measurement Setup: continuous infusion, 2 times the MIR
Recorded Onset time for the following compounds
Experimental Readout: Onset time

1. COC(=O)C1(OC(=O)c2cncn2[C@H](C)c2ccccc2)CC1 [CPMM, cyclopropyl methoxycarbonyl metamidate, reference compound]	3 to 4 min
2. C[C@H](c1ccccc1)n1nccc1C(=O)OC1CCC1	4 to 5 min
3. COC1CC(OC(=O)c2c(F)cnn2C(C)c2ccccc2)C1 (stereo not shown)	3 to 4 min
4. C[C@H](c1ccccc1)n1nccc1C(=O)OC1(C)COC1	3 to 4 min

----------
# Tested on: Sprague-Dawley rats
# Procedure Summary: Pharmacological effect and adverse reactions under the equivalent dose (2ED50), Group D compounds
# Assay type: in vivo
# Measurement Setup: equivalent dose (2 × ED50), number of rats of n = 8
Experimental Readout: Adverse reaction: Systemic stiffness, Convulsions, Opisthotonus

1) C[C@H](c1ccccc1)n1cncc1C(=O)C(=O)OCC(C)(C)C	2
2) CCOC(OCC)C(=O)c1c(F)ncn1[C@H](C)c1ccccc1	2
3) C#CCOCC(OC)(OC)C(=O)c1cncn1[C@H](C)c1ccccc1	0
4) COC(OC)(OCC(C)(C)C)C(=O)c1ccnn1[C@H](C)c1ccccc1	0
5) CCSC(OC)(OC)C(=O)c1ccnn1[C@H](C)c1ccccc1 [Compound D2]	0
6) COC(OC)(OC)C(=O)c1c(F)ncn1[C@H](C)c1ccccc1	8
7) CCOC(OC)(OC)C(=O)c1cncn1[C@H](C)c1ccccc1	2
8) COC(OC)C(=O)c1cncn1[C@H](C)c1ccccc1	5
9) COC(OC)C(=O)c1cc(F)nn1[C@H](C)c1ccccc1	0
10) C=CCOCC(OC)(OC)C(=O)c1cncn1[C@H](C)c1ccccc1	0
11) COC(OC)(OC)C(=O)c1ccnn1[C@H](C)c1ccccc1 [Compound D1]	0

----------
Recorded Approximate therapeutic index for the following molecules
# Test system: Sprague-Dawley rats
# Procedure Summary: animal or person
# Type: in vivo
# Measurement Setup: rats
Experimental Readout: Approximate therapeutic index

1. C#CCOCC(=O)c1c(F)ncn1[C@H](C)c1ccccc1	>23.4
2. C#CCOCC(=O)c1cncn1[C@H](C)c1ccccc1	>12.9
3. CC#CCC(=O)c1cncn1[C@H](C)c1ccccc1	>16.6
4. C[C@H](c1ccccc1)n1cnc(F)c1C(=O)COCC1CC1	>21.9
5. CCOCC(=O)c1ccnn1[C@H](C)c1ccccc1	>2.5
6. COCC(=O)c1c(F)ncn1[C@H](C)c1ccccc1	>8.0
